- System: MOLT-4
- protocol text: NCI tumour cell line growth inhibition, 48 h
The source made the active and inactive calls. Cut-off read from the data, not from the text of the source: active = GI50 up to about 1.1 µM and inactive = higher.
measured metric: GI50

| compound | test result |
| --- | --- |
| CC(C)(C)[Si](C)(C)OCC1OC(n2cc(I)c(=O)[nH]c2=O)C(O[Si](C)(C)C(C)(C)C)C1O[Si](C)(C)C(C)(C)C (stereo not given) | 10.7 µM (inactive) |
| O=C1c2cccc(O)c2C(=O)c2c(O)cccc21 [DANTHRON] | 40.1 µM (inactive) |
| O=CC(NC(=O)N(CCCl)N=O)C(O)C(O)C(O)CO (stereo not given) | 159 µM (inactive) |
| COC(=O)CN(C)P(=O)(N1CC1)N1CC1 | 33 µM (inactive) |
| O=C1c2ccc(O)c(O)c2C(=O)c2c(O)ccc(O)c21 [QUINALIZARIN] | 23.1 µM (inactive) |
| O=C(O)c1cccc2c1/C(=N/Nc1ccccc1)CC2 | > 100 µM (inactive) |
| CCOP(=O)(/C=C/n1cnc2c(=O)n(C(C)=O)c(N)nc21)OCC | > 100 µM (inactive) |
| C[Si](C)(C)/C(Br)=C\CCN1C(=O)CCC1=O | > 100 µM (inactive) |
| CC(Br)C(=O)NN1C2=C(Nc3ccccc31)c1cccc3cccc2c13 (stereo not given) | 36.6 µM (inactive) |
| O=C(O)CCc1nc(-c2ccccc2)c(-c2ccccc2)o1 [OXAPROZIN] | 84.1 µM (inactive) |

###

- Test system: SN12C
- protocol text: NCI tumour cell line growth inhibition, 48 h
Activity calls are given as the source filed them. No stated cut-off is given here; in the data, active = GI50 up to about 1.1 µM and inactive = higher.
// reported GI50 per item
measured metric: GI50

| compound | test result |
| --- | --- |
| OC(c1cc2ccc(C(F)(F)F)cc2c2cc(C(F)(F)F)ccc12)C1CCCCN1 (stereo not given) | 1.74 µM (inactive) |
| COc1ccc2c(O)c3[n+](cc2c1OC)CCc1cc2c(cc1-3)OCO2 | > 100 µM (inactive) |
| CN(/C(=N\O)c1ccccc1)c1ccccc1 | 32.1 µM (inactive) |
| CCOC(=O)CCC(NC(=O)c1ccc(N2CCN(c3c(C)nc(N)nc3N)CC2)cc1)C(=O)OCC (stereo not given) | > 22.5 µM (inactive) |
| CSc1ccc2c(c1)N(CCCN(C)C)c1ccccc1S2 | 13.1 µM (inactive) |
| O=P1(Cc2ccccc2)c2ccccc2-c2ccccc21 | 14.2 µM (inactive) |
| c1ccc(Cc2cccc3cc(-c4ccc(-c5ccccc5)cc4)[nH]c23)cc1 | 96.6 µM (inactive) |
| COC(=O)C1=C(C(=O)OC)C23C=CC=CC24C(C(=O)OC)=C(C(=O)OC)C4C1C3 (stereo not given) | > 100 µM (inactive) |
| O=[N+]([O-])c1ccc(C2NC(=S)NC3c4cc([N+](=O)[O-])ccc4CCCC23)cc1 (stereo not given) | > 100 µM (inactive) |
| OCc1ccccc1O[C@H]1O[C@H](CO)[C@@H](O)[C@H](O)[C@H]1O | > 100 µM (inactive) |

###

// reported GI50 per item
- Test system: SN12C
- protocol text: NCI tumour cell line growth inhibition, 48 h
Activity calls are given as the source filed them. Rule as the data show it: active = GI50 up to about 1.1 µM and inactive = higher.

| molecule | GI50 |
| --- | --- |
| CC(C)(C)OC(=O)NC(Cc1ccccc1)C(=O)OCN1C(=O)C2C3C=CC(C2C1=O)C1C2C(=O)N(COC(=O)C(Cc4ccccc4)NC(=O)OC(C)(C)C)C(=O)C2C31 (stereo not given) | 25.5 µM (inactive) |
| CC(=O)O[C@H]1C(=O)N(c2cc3c4ccccc4ccc3c3ccccc23)[C@@H]1c1ccccc1 | 11 µM (inactive) |
| c1ccc2c(c1)c1c(n2CCOCCN2CCOCC2)CCCC1 | > 10 µM (inactive) |
| CCCC1C2=C(C(=O)OC2=O)C2C(CC)CC3=C(C(=O)OC3=O)C12 (stereo not given) | > 100 µM (inactive) |
| N#CCCN(c1ccc(/C=N/c2ccccc2Cl)cc1)S(=O)(=O)c1ccccc1 | > 100 µM (inactive) |
| N#CC(C(=N/O)/C(=N\O)C(C#N)c1ccccc1)c1ccccc1 (stereo not given) | > 100 µM (inactive) |
| CCCCN(CCCC)CC(C(=O)Nc1ccc([N+](=O)[O-])cc1[N+](=O)[O-])/C(C)=N\NC(=O)C[N+](C)(C)C (stereo not given) | > 100 µM (inactive) |
| COC(=O)c1cccc(COc2ccc([N+](=O)[O-])cc2Cl)c1 | 49 µM (inactive) |
| COc1ccc2cc(CNCCCN3CCN(CCCNCc4ccc5cc(OC)ccc5c4)CC3)ccc2c1 | 1.69 µM (inactive) |
| C/C=C/C1(NS(=O)(=O)c2ccc(C)cc2)CCC(C(C)(C)C)CC1 (stereo not given) | 18.2 µM (inactive) |
| CC(Br)C(=O)NN1C2=C(Nc3ccccc31)c1cccc3cccc2c13 (stereo not given) | > 100 µM (inactive) |
| CCOc1ccc(NC(=S)N/C=C(/C(C)=O)C(=O)Nc2ccccc2C)cc1 | > 100 µM (inactive) |
| CC(=O)CC(=O)ON(C)C(C)=O | > 100 µM (inactive) |
| CC1(C)CN(CC(=O)O)CC(Cc2ccc(OCC(=O)O)cc2)N(CC(=O)O)CC(C)(C)SS1 (stereo not given) | > 100 µM (inactive) |
| Cc1n[nH]c(=O)n1/N=C/c1cccnc1 | > 100 µM (inactive) |
| COc1ccc(/C=N/NS(=O)(=O)c2ccc(/C=C3\NC(=O)N(C)C3=O)cc2)cc1 | > 100 µM (inactive) |
| CC1=CC(O)(c2ccccc2)C(N2CCOCC2)N1O (stereo not given) | > 100 µM (inactive) |
| CN(C)CCOc1cc2c(c3ccccc13)-c1ccccc1C2O (stereo not given) | 13.4 µM (inactive) |
| CCNC(=S)NNC(=O)c1nsc2ccccc12 | 55.1 µM (inactive) |
| S=C(/N=c1\sc(NCc2ccccc2)nc2sc3c(c12)CCN(N1CCc2c(sc4nc(NCc5ccccc5)s/c(=N\C(=S)NCc5ccccc5)c24)C1)C3)NCc1ccccc1 | 16.2 µM (inactive) |

Values compiled from ChEMBL document CHEMBL1201862.
